Source: patent US10336746B1

# EXPERIMENT_NOTES: Bi-directional Caco-2 permeability
# Assay type: in vitro ADME
# CONDITION_DESCRIPTION: human, Caco-2; read-out: BA/AB Ratio
Recorded efflux ratio at 90 min values for a group of compounds are listed next.
// keep it numeric: no unit symbol after the value

CC(C)(C)NS(=O)(=O)c1cc(NC(=O)NCc2ccccc2F)ccc1-c1cnc(C2CCC(NC(=O)OC3COC3)CC2)s1 (stereo not drawn) = 1
CC(C)OC(=O)Nc1ccc(-c2cnc(C3CCC(NC(=O)OC4COC4)CC3)s2)c(S(=O)(=O)NC(C)(C)C)c1 (stereo not drawn) = 0.7
CC(C)OC(=O)N[C@H]1CC[C@H](c2ncc(-c3ccc(NC(=O)NCc4ccccn4)cc3S(=O)(=O)NC(C)(C)C)s2)CC1 = 2.2
C[C@@H](NC(=O)Nc1ccc(-c2cnc(C3CCC(NC(=O)OC4COC4)CC3)s2)c(S(=O)(=O)NC(C)(C)C)c1)c1ccccc1 (stereo partly drawn) = 1.5
CC(C)OC(=O)Nc1ccc(-c2cnc([C@@H]3CC[C@@H](NC(=O)OC(C)C)CN3)s2)c(S(=O)(=O)NC(C)(C)C)c1 (relative stereo) = 2.5

Turning now to a further record.
Data point: CC(C)OC(=O)N[C@H]1CC[C@H](c2ncc(-c3ccc(NC(=O)NCc4ccccc4F)cc3S(=O)(=O)NC(C)(C)C)s2)CC1 ; efflux ratio at 90 min = 1.7

====

# EXPERIMENT_NOTES: Bi-directional Caco-2 permeability
# Format: in vitro ADME
# CONDITION_DESCRIPTION: human; Caco-2, apical to basolateral, 37 C, up to 90 minutes; read-out: AB Papp (cm/sec × 10^6)
# Description: Bi-directional Caco-2 permeability was assayed. Caco-2 cells were seeded onto permeable polycarbonate supports and allowed to differentiate for about 3 weeks prior to being used in the assays. The cells were then exposed to the compounds from either the apical or basolateral sides and incubated at 37 C for up to 90 minutes under light agitation. Compound transport was then measured using LC/MS/MS analysis at 30, 60, and 90 minutes.
Label scheme for Papp A→B at 90 min: lower than 6 ×10⁻⁶ cm/s is Condition not met, 6 ×10⁻⁶ cm/s and above is Condition met.

As a guide, the following entries are already answered.
CC(C)(C)NS(=O)(=O)c1cc(NC(=O)NCc2ccccc2F)ccc1-c1cnc(C2CCC(NC(=O)OC3COC3)CC2)s1 (stereo not drawn) = Condition met
CC(C)OC(=O)Nc1ccc(-c2cnc([C@H]3CC[C@H](NC(=O)OC4CCCC4)CC3)s2)c(S(=O)(=O)NC(C)(C)C)c1 = Condition not met
CC(C)OC(=O)N[C@H]1CC[C@H](c2ncc(-c3ccc(NC(=O)NCc4ccccn4)cc3S(=O)(=O)NC(C)(C)C)s2)CC1 = Condition met
CC(C)(C)NS(=O)(=O)c1cc(NC(=O)NCc2ccccn2)ccc1-c1cnc(C2CCC(NC(=O)OC(C)(C)C)CC2)s1 (stereo not drawn) = Condition met

Then this compound:
Decide: Papp A→B at 90 min of CC(C)OC(=O)Nc1ccc(-c2cnc([C@@H]3CC[C@@H](NC(=O)OC(C)C)CN3)s2)c(S(=O)(=O)NC(C)(C)C)c1 (relative stereo) >= 6 ×10⁻⁶ cm/s?
Condition met

====

# EXPERIMENT_NOTES: Bi-directional Caco-2 permeability
# Type: in vitro ADME
# CONDITION_DESCRIPTION: human, Caco-2, Caco-2, BA direction; read-out: BA Recovery %
PROPERTY_MEASURED: recovery at 90 min (%)
Record the value in %, omitting the unit from your answer.

CC(C)OC(=O)N[C@H]1CC[C@H](c2ncc(-c3ccc(NC(=O)NCc4ccccn4)cc3S(=O)(=O)NC(C)(C)C)s2)CC1 = 90.9
CC(C)OC(=O)N[C@H]1CC[C@H](c2ncc(-c3ccc(NC(=O)NCc4cccc(F)c4)cc3S(=O)(=O)NC(C)(C)C)s2)CC1 = 107
CC(C)OC(=O)N[C@@H]1CC[C@@H](c2ncc(-c3ccc(NC(=O)NCc4ccccc4)cc3S(=O)(=O)NC(C)(C)C)s2)NC1 = 95.9
CC(C)OC(=O)N[C@@H]1CC[C@@H](c2ncc(-c3ccc(NC(=O)NCc4ccccc4)cc3S(=O)(=O)NC(C)(C)C)s2)OC1 [Ex. 59A] = 85.5
CC(C)(C)NS(=O)(=O)c1cc(NC(=O)NCc2ccccn2)ccc1-c1cnc(C2CCC(NC(=O)OC3COC3)CC2)s1 (centres unmarked) = 98.1

Data point: CC(C)OC(=O)Nc1ccc(-c2cnc([C@@H]3CC[C@@H](NC(=O)OC(C)C)CN3)s2)c(S(=O)(=O)NC(C)(C)C)c1 (relative stereo) ; recovery at 90 min = 90

Data point: CC(C)OC(=O)Nc1ccc(-c2cnc(N3CCN(C(=O)OC(C)C)CC3)s2)c(S(=O)(=O)NC(C)(C)C)c1 ; recovery at 90 min = 80.8

Data point: CC(C)OC(=O)N[C@H]1CC[C@H](c2ncc(-c3ccc(NC(=O)N[C@H](C)c4ccccn4)cc3S(=O)(=O)NC(C)(C)C)s2)CC1 ; recovery at 90 min = 116
